Test: Measurement of dynamic viscosity
Assay type: physicochemical
Conditions: 3% by mass solution in n-decane, 20° C.
parameter: Dynamic Viscosity (mPa · s) (mPa·s)

compound	parameter	unit spec	recorded measurement
CCCCC(CC)COc1cc(N(CC(CC)CCCC)CC(CC)CCCC)ccc1N=C1C(=O)N(CC(CC)CCCC)N=C1C (stereo not shown)	Dynamic Viscosity (mPa · s)	mPa·s	1.2
CCCCC(CC)CNC(=O)c1cc(N(CC(CC)CCCC)CC(CC)CCCC)ccc1/N=C1/C(CC)=Nn2nc(C(C)C)nc21 (stereo not shown)	Dynamic Viscosity (mPa · s)	mPa·s	1.3
CCCCC(CC)CN(CC(CC)CCCC)c1ccc(C=C2C(=O)N(C(C)CC)N=C2C(C)CC)c(C)c1 (stereo not shown) [D2-1]	Dynamic Viscosity (mPa · s)	mPa·s	1.3
CCCCC(CC)CNC(=O)C1=CC(=Nc2ccc(N(CC(CC)CCCC)CC(CC)CCCC)cc2C)c2ccccc2C1=O (stereo not shown)	Dynamic Viscosity (mPa · s)	mPa·s	1.3
CCCCC(CC)CNC(=O)c1cc(N(CC(CC)CCCC)CC(CC)CCCC)ccc1/N=C1\C(C#N)=C(C(=O)OC2C(C(C)(C)C)CC(C)CC2C(C)(C)C)c2nc(C(C)(C)C)nn21 (stereo not shown)	Dynamic Viscosity (mPa · s)	mPa·s	1.2
CCCCCCN(CCCCCC)c1ccc(C=C2C(=O)N(CC(CC)CCCC)N=C2C)c(C)c1 (stereo not shown) [D2-5]	Dynamic Viscosity (mPa · s)	mPa·s	1.2
CCCCCC(CC)c1nc2n(n1)N=C(C(C)CC)/C2=N/c1ccc(N(CC(CC)CCCC)CC(CC)CCCC)cc1C (stereo not shown)	Dynamic Viscosity (mPa · s)	mPa·s	1.3

====

Assay: Color of colored composition, visually evaluated
Type: physicochemical
Settings: n-hexane solution, visual evaluation

compound	Color of Solution
CCCCC(CC)CN(CC(CC)CCCC)c1ccc(/N=C2\C(C#N)=C(C(=O)OC3C(C(C)(C)C)CC(C)CC3C(C)(C)C)c3nc(C(C)(C)C)nn32)cc1 (stereo not shown)	blue
CCCCCC(CC)c1nc2n(n1)N=C(C(C)CC)/C2=N/c1ccc(N(CC(CC)CCCC)CC(CC)CCCC)cc1C (stereo not shown)	red
CCCCCCCCN1c2cc(C)c(/N=C3/C(C)=Nn4nc(C(C)(C)C)nc43)cc2C(C)CC1(C)C (stereo not shown) [D8-101, reference compound]	red

====

Assay: Color of colored composition, visually evaluated
Format: physicochemical
Conditions: n-hexane solution, visual evaluation
From the text: 1. Color of Colored Composition The color of the colored composition was visually evaluated.

compound	Color of Solution
CCCCC(CC)CNc1ccc(NCC(CC)CCCC)c2c1C(=O)c1ccccc1C2=O (centres unmarked)	blue
CCCCC1=NN(CCCC)C(=O)C1=Cc1ccc(N(CCCC)CCCC)cc1C [D2-101, reference compound]	orange
CCCCCCOc1cc(N(CC)CC)ccc1N=C1C(=O)N(CCCC)N=C1C [D6-101, reference compound]	orange
CCCCCCCCN1c2cc(C)c(/N=C3\C(C#N)=C(C(=O)OC4C(C(C)(C)C)CC(C)CC4C(C)(C)C)c4nc(C(C)CCCC)nn43)cc2C(C)CC1(C)C (centres unmarked)	blue
CCCCCCNc1ccc(NCCCCCC)c2c1C(=O)c1ccccc1C2=O [D4-101, reference compound]	blue
CCCCCCN(CCCCCC)c1ccc(C=C2C(=O)N(CC(CC)CCCC)N=C2C)c(C)c1 (centres unmarked) [D2-5]	orange
CCCCC(CC)CNC(=O)c1cc(N(CC(CC)CCCC)CC(CC)CCCC)ccc1/N=C1\C(C#N)=C(C(=O)OC2C(C(C)(C)C)CC(C)CC2C(C)(C)C)c2nc(C(C)(C)C)nn21 (centres unmarked)	blue
CCCCCCCCN1c2cc(C)c(/N=C3/C(C)=Nn4nc(C(C)CNC(=O)C(CCCCCC)Oc5ccc(C(C)(C)CC)cc5C(C)(C)CC)nc43)cc2C(C)CC1(C)C (centres unmarked)	red

====

Experiment: Solubility of the dye in n-hexane
Assay type: physicochemical
Conditions: in n-hexane at 25° C. and 0.1 MPa

compound	Solubility (% by Mass) (% by mass)
CCCCC(CC)CN(CC(CC)CCCC)c1ccc(C=C2C(=O)N(C(C)CC)N=C2C(C)CC)c(C)c1 (centres unmarked) [D2-1]	8.5
CCCCCCCCN1c2cc(C)c(/N=C3\C(C#N)=C(C(=O)OC4C(C(C)(C)C)CC(C)CC4C(C)(C)C)c4nc(C(C)CCCC)nn43)cc2C(C)CC1(C)C (centres unmarked) [D9-2]	2.2
CCCCCCN(CCCCCC)c1ccc(C=C2C(=O)N(CC(CC)CCCC)N=C2C)c(C)c1 (centres unmarked) [D2-5]	3.0
CCCCC(CC)CN(CC(CC)CCCC)c1ccc(C=C2C(=O)N(C(C)CC)C(=O)C(C#N)=C2C(C)CC)c(C)c1 (centres unmarked) [D3-1]	6.2
CCCCC(CC)CNc1ccc(NCC(CC)CCCC)c2c1C(=O)c1ccccc1C2=O (centres unmarked) [D4-2]	3.6
CCCCCCOc1cc(N(CC)CC)ccc1N=C1C(=O)N(CCCC)N=C1C [D6-101, reference compound]	0.1
CCCCCCNc1ccc(NCCCCCC)c2c1C(=O)c1ccccc1C2=O [D4-101, reference compound]	0.1

====

Test: Absorption maximum wavelength, absorbance and absorption coefficient of the colored composition
Format: physicochemical
Details: n-hexane solution, 3% by mass or maximum concentration at which the dye completely dissolves
// Absorption Maximum Wavelength (λ max) lookup, one value per entry

compound	Absorption Maximum Wavelength (λ max)
CCCCCCNc1ccc(NCCCCCC)c2c1C(=O)c1ccccc1C2=O [D4-101, reference compound]	642 nm
CCCCC1=NN(CCCC)C(=O)C1=Cc1ccc(N(CCCC)CCCC)cc1C [D2-101, reference compound]	510 nm
CCCCC(CC)CN(CC(CC)CCCC)c1ccc(C=C2C(=O)N(C(C)CC)C(=O)C(C#N)=C2C(C)CC)c(C)c1 (stereo not shown)	528 nm
CCCCCCCCN1c2cc(C)c(/N=C3/C(C)=Nn4nc(C(C)CNC(=O)C(CCCCCC)Oc5ccc(C(C)(C)CC)cc5C(C)(C)CC)nc43)cc2C(C)CC1(C)C (stereo not shown)	542 nm

====

Assay: Solubility of the dye in n-hexane
Format: physicochemical
Conditions: in n-hexane at 25° C. and 0.1 MPa

molecule	Solubility (% by Mass)
CCCCC(CC)COc1cc(N(CC(CC)CCCC)CC(CC)CCCC)ccc1N=C1C(=O)N(CC(CC)CCCC)N=C1C (stereo not shown) [D6-1]	≥ 10 or % by mass
CCCCC(CC)CN1C(=O)C(=Cc2ccc(N(CCCC)CCCC)cc2OCC(CC(C)CC(C)CC(C)C)CC(C)CC(C)(C)C)C(C)=C(C#N)C1=O (stereo not shown) [D3-2]	≥ 10 or % by mass
CCCCCC(CC)c1nc2n(n1)N=C(C(C)CC)/C2=N/c1ccc(N(CC(CC)CCCC)CC(CC)CCCC)cc1C (stereo not shown) [D8-4]	≥ 10 or % by mass
CCCCC(CC)CC1=NN(CC(CC)CCCC)C(=O)C1=Nc1ccc(N(CC)CC)cc1OCC(C)(CC(C)CC(C)C)CC(C)CC(C)(C)C (stereo not shown) [D6-2]	≥ 10 or % by mass
CCN(CC)c1ccc(/N=C2\C(C#N)=C(C(=O)OC)c3nc(-c4ccc(C(C)(C)C)cc4)nn32)c(C)c1 [D9-101, reference compound]	≤ 0.05 or % by mass
CCCCC(CC)CNC(=O)c1cc(N(CC(CC)CCCC)CC(CC)CCCC)ccc1/N=C1\C(C#N)=C(C(=O)OC2C(C(C)(C)C)CC(C)CC2C(C)(C)C)c2nc(C(C)(C)C)nn21 (stereo not shown) [D9-6]	≥ 10 or % by mass

The measured values listed here are drawn from patent US9075281B2.
